B1: TPR t1 (parent)
chain: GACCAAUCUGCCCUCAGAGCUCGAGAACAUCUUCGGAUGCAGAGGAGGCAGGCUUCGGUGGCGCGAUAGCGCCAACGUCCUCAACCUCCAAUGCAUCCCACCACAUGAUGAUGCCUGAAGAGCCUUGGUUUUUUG

variants of: B1; assay: polymerase ribozyme fitness, log enrichment relative to wild type (log ratio); higher = more active; in vitro selection for triplet polymerase activity
Please go through the items and note down their polymerase ribozyme fitness (log ratio).
Numbers only.

Guide cases for polymerase ribozyme fitness (log ratio), answers given:
Variant Descriptor	polymerase ribozyme fitness (log ratio)
A26U A121U	-0.422
C40U U59C C85G	-2.73
G48A G61A	-0.0923
C4A A29G C31G A105G A108U A111C C115G C123A	-6.34
G52C C123G	0.381

Look at each variant and report its polymerase ribozyme fitness (log ratio).
1. C4G A41C G77A A95C
2. G10A C72U G113A
3. A5U C56U A91C U112G
4. C3G C11G C97G C114A
5. G19U A41U G71A
6. C98G G120C
7. C20U C62U U92A C97U
8. C11U G120A

[reply]
-3.4
-1.32
-1.59
-4.68
-5.44
-3.19
-5.74
0.0588

Look at each variant and report its polymerase ribozyme fitness (log ratio).
1. C72G U78G G110U
2. G44A G57C G61A U112C G120A G127A

[reply]
-2.55
-1.81
